# Test system: Plasmodium falciparum
# PROTOCOL NOTES: Hit confirmation in dose-response curve in NF54 pLDH assay, at 72h
# Format: functional, organism-based
# Design: timepoint 72 hour
# CONDITION PARAMETERS: NF54, Erythrocyte
READOUT TYPE: IC50 (µM)
Express it in µM; write the number only.

Cc1ccc(-c2cc(O)cc(CC[C@H]3CCCCN3)c2)c(C)n1    2.82
Cn1c(=O)c2c(-c3ccc(Cl)cc3)n(-c3cccc4cccc(N)c34)cc2n(C)c1=O    0.0182

Look up IC50 with Plasmodium falciparum for this compound: `COc1ccc(C(=O)C[n+]2nc(CNc3ccc(Br)cc3)n3c2CCCCC3)cc1` 0.759

Look up IC50 with Plasmodium falciparum for this compound: `O=C(Nc1ccc(C2(c3ccc(NC(=O)c4ccc(F)cc4)cc3)c3ccccc3C(=O)c3ccccc32)cc1)c1ccc(F)cc1` 5.89

----------
# Tested on: Plasmodium falciparum
# PROTOCOL NOTES: Hit confirmation in dose-response curve in NF54 pLDH assay, at 72h
# Assay type: functional, organism-based
# Design: timepoint 72 hour
# CONDITION PARAMETERS: NF54, Erythrocyte
Quick reference for IC50 among some compounds

Completed entries (count: 2):
CC1(C)CCC(Nc2ccc(C(N)=O)nn2)CC1    0.0871 µM
O=C(c1ccccc1)c1ccc(O)c(CN2CCCN(c3ccc(C(F)(F)F)cn3)CC2)c1O    3.72 µM

Given the entry `Cc1cc(N)nc(Nc2ccc(Nc3ccccc3)cc2)n1` , report its measured IC50. 3.31 µM

Given the entry Cc1nnc(NC(c2cnc3ccccc3c2)[C@H]2C[C@@H](O)C2)s1 (stereo not given in full) , report its measured IC50. > 10 µM

----------
# System: Plasmodium falciparum
# PROTOCOL NOTES: Hit confirmation in dose-response curve in NF54 pLDH assay, at 72h
# Format: functional, organism-based
# Set-up: timepoint 72 hour
# CONDITION PARAMETERS: NF54, Erythrocyte
Quick reference for pIC50 among some compounds
When answering, recall that pIC50 equals minus log10 of the concentration in mol/L, and write that number alone.

NC1CC(NCCc2cccc3cccnc23)c2ccccc21 (stereo not given)    5.11
CCOc1cccc(-c2ccc3nc(-c4cccc(OC)c4)c(CCC(=O)NCCN4CCCC4)n3c2)c1    6.55

Given the entry `Cc1c([C@@H](NCc2ncccc2O)C(C)C)oc2ccccc12` , report its measured pIC50. 6.08

Given the entry `COc1cccc2c(=O)c3c([nH]c12)CCN(CC(=O)NCc1ccccc1Cl)C3` , report its measured pIC50. 5.00

Given the entry `O=C(COc1ccccc1)Nc1ccc2c(c1)C(O)=Nc1cccnc1O2` , report its measured pIC50. 5.61

Given the entry `O=C(Nc1[nH]c(=O)ncc1F)c1coc(-c2ccccc2)n1` , report its measured pIC50. 7.95

Given the entry `O=C(N1CCCN(c2nc3ccccc3nc2-c2ccccc2)CC1)C(Cl)(Cl)Cl` , report its measured pIC50. 5.14

----------
# System: Plasmodium falciparum
# PROTOCOL NOTES: Hit confirmation in dose-response curve in NF54 nanoGlo assay, at 72h
# Type: functional, organism-based, Erythrocyte
# Set-up: timepoint 72 hour
# CONDITION PARAMETERS: Plasmodium falciparum, NF54, Erythrocyte, 72 h
Note to self: class = bucket of IC50, per 1 = under 1 µM, 2 = from 1 µM up to 2 µM, 3 = 2 µM and over

CC1CC(C(=O)Nc2[nH]c(=O)ncc2F)CC(C)(C)C1 (stereo unspecified)    1
Nc1ncc(C(=O)N2CCC3(CCCCCC3)C2)s1    1
NC(=NCc1cccc2cccnc12)N1CCN(c2nccs2)CC1    2
CCc1nc2cc(N3CCC(C(=O)Nc4ccc5c(c4)OCO5)CC3)cnc2nc1CC    2

Then this compound:
Lab note: sort `COc1nc(N2[C@@H]3CC[C@H]2C[C@@H](OC)C3)ncc1F` into the matching IC50 band. 3

----------
Quick reference for IC50 among some compounds
# Tested on: Plasmodium falciparum
# PROTOCOL NOTES: Hit confirmation in dose-response curve in NF54 pLDH assay, at 72h
# Type: functional, organism-based
# Design: timepoint 72 hour
# CONDITION PARAMETERS: NF54, Erythrocyte
Express it in nM; write the number only.

Completed entries (count: 2):
COc1ccc2nc(O)c(C(=O)Nc3ccc4c(c3F)CCNC4)cc2c1    1100
O=S(=O)(c1ccc(Cl)s1)N1CCC(N2CCc3sccc3C2)CC1    1120

// switching to the query compound
Look up IC50 with Plasmodium falciparum for this compound: `CN(C)c1nc(N)cc(-c2cccc3cccnc23)n1` 3800

----------
# System: Plasmodium falciparum
# PROTOCOL NOTES: Hit confirmation in dose-response curve in NF54 nanoGlo assay, at 72h
# Assay type: functional, organism-based, Erythrocyte
# Parameters: timepoint 72 hour
# CONDITION PARAMETERS: Plasmodium falciparum, NF54, Erythrocyte, 72 h
Quick reference for pIC50 among some compounds
When answering, recall that pIC50 equals minus log10 of the concentration in mol/L, and write that number alone.

Completed entries (count: 3):
Cc1ccc(CC[C@H]2Nc3ccccc3C(c3ccccc3)(c3ccccc3)O2)o1    5.73
CCc1ccc(C(=O)NCCCC2CCCC2O)cc1S(=O)(=O)N1CCOCC1 (stereo not given)    5.72
Cc1cc2nc(C)c(=O)n(Cc3ccc(C(=O)NCCN4CCCC[C@@H]4C)cc3)c2cc1C    5.38

Given the entry `CN(C)c1nc(N)cc(-c2cccc3cccnc23)n1` , report its measured pIC50. 5.70

Given the entry `Cc1ccc(S(=O)(=O)Nc2c(S(=O)(=O)c3ccccc3)c3nc4ccccc4nc3n2CCc2ccccc2)cc1` , report its measured pIC50. 5.67

----------
# PROTOCOL NOTES: Hit confirmation in dose-response curve in HepG2 cytotoxicity assay, at 72h
# Assay type: toxicity, cell-based
# Parameters: timepoint 72 hour
# CONDITION PARAMETERS: human, HepG2 cells
READOUT TYPE: IC50 at 72 h

Completed entries (count: 2):
Cc1cc(C)c2nc(C)cc(Nc3ccc(O)cc3)c2c1    > 10 µM
O=C(NCCN1CCCC1)c1ccc2nc(-c3ccc(Cl)cc3)cn2c1    > 10 µM

// switching to the query molecule
Given the entry `CC(C)c1ccc(-c2nc(CN3CCCCC3)cc(CN3CCCCC3)c2O)cc1` , report its measured IC50 at 72 h. > 10 µM

----------
# System: Plasmodium falciparum
# PROTOCOL NOTES: Hit confirmation in dose-response curve in NF54 pLDH assay, at 72h
# Assay type: functional, organism-based
# Set-up: timepoint 72 hour
# CONDITION PARAMETERS: NF54, Erythrocyte
Quick reference for pIC50 among some compounds
When answering, recall that pIC50 equals minus log10 of the concentration in mol/L, and write that number alone.

Completed entries (count: 2):
O[C@H]1CNCC[C@@H]1Nc1cc(-c2ccccc2)nc2ccccc12    5.42
O=C(N[C@@H](CN1CCCC1)c1ccccc1)N1CCC(c2ccn[nH]2)CC1    5.65

Given the entry `COc1nc(N2[C@@H]3CC[C@H]2C[C@@H](OC)C3)ncc1F` , report its measured pIC50. 5.21

Given the entry `CCn1ncc(CN2CC[C@@H]3C(=O)NCCCCCCN(Cc4ccncc4)[C@@H]3C2)c1C` , report its measured pIC50. 5.90

Given the entry CCC(C(=O)Nc1ccc2c(c1)CN(CCc1ccc(OC)c(OC)c1)C(=O)C(C)O2)c1ccccc1 (stereo not drawn) , report its measured pIC50. 5.54

Given the entry `NC(=NCc1cccc2cccnc12)N1CCN(c2nccs2)CC1` , report its measured pIC50. 6.35

Given the entry `Cn1ccnc1[C@@H]1CCCN1Cc1nccn1Cc1ccccc1` , report its measured pIC50. 5.55

Given the entry CC1CCC(c2noc([C@H]3CCO[C@@H]3c3cncc(Br)c3)n2)CC1 (stereo partly drawn) , report its measured pIC50. 5.35

Given the entry `CC(=O)c1cc(-c2cc(O)cc(CC[C@H]3CCCCN3)c2)ccc1O` , report its measured pIC50. 5.69

Given the entry `C[C@@H](CNc1nc(-c2ccccc2)nc2nc(-c3ccc(Cl)cc3)oc12)N1CCCCC1` , report its measured pIC50. 5.12

Given the entry `Cc1n(CC(=O)c2ccccc2)c2ccccc2[n+]1CC(=O)c1ccccc1` , report its measured pIC50. 5.81

Given the entry `CCC(CC)C(=O)Nc1cc(C2CC2)nn1-c1nc(-c2ccccc2)cc(=O)[nH]1` , report its measured pIC50. 5.18

Given the entry CC1(C)C(NCC(O)COc2ccc(F)c(F)c2)[C@@H]2CCC[C@@H]21 (stereo partly drawn) , report its measured pIC50. 5.49

----------
# Test system: Plasmodium falciparum
# PROTOCOL NOTES: Hit confirmation in dose-response curve in NF54 pLDH assay, at 72h
# Assay type: functional, organism-based
# Parameters: timepoint 72 hour
# CONDITION PARAMETERS: NF54, Erythrocyte
READOUT TYPE: pIC50
When answering, recall that pIC50 equals minus log10 of the concentration in mol/L, and write that number alone.

Completed entries (count: 2):
CN1CC[C@]2(CCN(c3ccnc4ccsc34)C2)C1    6.42
O=C(N[C@@H]1CN(Cc2ccccn2)CCC[C@H]1O)c1ccc(OCc2ccccc2)cc1    5.39

Given the entry `CC(C)c1cc(=O)[nH]c(-n2nc(C3CC3)cc2NC(=O)c2ccc(F)cc2)n1` , report its measured pIC50. 5.19
